Recorded measurements of OD 450 nm, one per entry
- Target or system: HCV E1E2 antigen, isolate CH35 (hepatitis C virus, isolate CH35)
- Procedure text: ELISA, Fab on E1E2 antigen
Measure: OD 450 nm (OD 450 nm)

Binder	Measure	Measured result
Fab P6 (Fab, V domains shown) VH: EVQLLESGGGVVQPGKSLTVSCAASGFTFSTFTMHWVRQAPGKWLEWVAVISHDGGTEHYADSVTGRFTISRDNSKNTLHMQMNSLRLEDTAVYFCARGGPAYYLYNDVLTGYYNVVGDFWGQGTLVTVSS VL: ELIQSPGTLFLSSGERATLSCRASQSVSSSNLAWFQHKSGRAPRLLIYGASNRAPDIPDRFSGSGSGTDFTISISRLEPEDFAVYYCQRYGDSPPITFGQGTRLEIKR	OD 450 nm	0.21
Fab U1 (Fab, V domains shown) VH: VQLLEQSGPEVKRPGTSVKMSCKISGGASITQAMSWVRQAPGQGLEWMGGITPIFGTVNYAQKILGRVTITADEDTVSLELSSLKSEDTAVYYCAREVNLKTWNLAHPNVFDVWGQGTMLTVSS VL: ELTQSPSSLSASVGDRVTITCRASQSISSFLNWYQQKPGKAPKLLIYAASSLQSGVPPRFSGSGSGTDFTLTISSLQPEDFATYYCQQSYSTPRTFGQGTKLEIKR	OD 450 nm	0.07
Fab Q2 (Fab, V domains shown) VH: VQLLEQSGAEVKKPGASVKVSCKASGYTFTNNGLNWVRQAPGQGLEWMGWISPYNGDTDFAHKFQGRISMTTDTSTNTAYMELRSLRSDDTAVYYCARDRNSAGGTWLFRDPPPGSTFFDSWGQGSLVTVSS VL: ELTQSPASLSLSPGGSATLACRASRGVNSNLAWYHQKPGQAPRLLIYSASTRATGIPGRFSGSGFGTEFTLTINNLQSDDFGVYYCQQYDDTPQITFGQGTRLDIKR	OD 450 nm	0.19
Fab N2 (Fab, V domains shown) VH: VQLLEQSGPEVKKPGDSLRISCKMSGDSLVTTWIGWVRQKPGQGLEWMGIINPGDSSTNIYPGDSATRYGPSFQGQVTISIDKSTSTAYLQWNTVKPSDTGIYYCARHVPVPISGTFLWREREMHDFGYFDDWGQGTLVIVSS VL: ELTQSPGTLSLFPGERATLSCRASQSILGRYLAWYQQKGGRAPRLLIFGASKRATGIPDRFSGSGSGTDFTLTIGRLEPEDFAVYYCQHYGSSITFGQGTRLDIKR	OD 450 nm	0.82
Fab O1 (Fab, V domains shown) VH: VQLLEQSGAEVKKAGESVRLSCKASGYRFGDYWIAWVRQLPGRAPEWMGIIYPDDSDTKYSPSFQGQVTISADKSIRTTFLDWGSLKASDTAIYYCARGCLGAKCYYPHYYYGLDVWGQGTTVIVSS VL: ELTQSPSSLSASVGDRVTITCRATQGIDNYLNWYQQKPGKPPRLLIYGASSLQSGVPSRFSGGGSGTHFTLTITNLQPEDFATYYCQQSYSTPPETFGQGTKVEIKR	OD 450 nm	0.27
